# Tested on: Glioblastoma 030613
# Assay Explanation: alamarBlue cell viability, 12 point dose response, seven days
# Type: cell-based, human
# Test Settings: 030613, seven days
Reported Property: IC50 (nM)

chem_smiles=CC1(C)CN=C(N2CCN(c3ncnc4sc(CC(F)(F)F)cc34)CC2)S1 reported_property=IC50 unit_name=nM result=9.51

====

# System: Glioblastoma 050715
# Assay Explanation: alamarBlue cell viability, 12 point dose response, seven days
# Type: cell-based, human
# Test Settings: 050715, seven days
Reported Property: IC50 (nM)

compound="CC1(C)CN=C(N2CCN(c3ncnc4sc(CC(F)(F)F)cc34)CC2)S1 [MI-2-2]" study_system="Glioblastoma 050715" result=83.4
